Numbers sourced from patent US10538487B2.

Assay: Single dose pharmacokinetic study in mice (iv 4 mg/Kg, po 20 mg/Kg), plasma concentration post-dosing
Format: in vivo, mouse
Settings: male, C57BL/6, mouse, plasma, po, 20 mg/kg, mouse, PO 20 mg/Kg, mean of 3 mice; read-out: Cmax, Mean PO
Hi there, I'd appreciate the recorded Cmax for every entry that follows.
I only need the number, in ng/mL, no unit after it.

Task: Using the record for CC(C)n1ccc(S(=O)(=O)NC(=O)Nc2c3c(cc4c2CCC4)CCC3)n1 [MCC_007840_002] , report its Cmax.
Output: 60500

Task: Using the record for CC(C)(O)c1coc(S(=O)(=O)NC(=O)Nc2c3c(cc4c2CCC4)CCC3)c1 [MCC_000950_016, reference compound] , report its Cmax.
Output: 35000
